System: rabbit euglobulin fraction
METHOD: In vitro euglobulin clot lysis time (ECLT)
Assay type: biochemical
SETUP_CONDITIONS: dosage differs per compound (1.3-6.7 μg; UK 5 IU); 96 well microtiter plate; n = 6; NS control 200.01 ± 15.26
Method: The rabbit euglobulin fraction was prepared according to the literature^[6]. Plasma diluted […] in distilled water was precipitated at pH 5.7 with acetic acid (0.25%). […] Euglobulin clot lysis time (ECLT) of the tested pseudopeptide was measured using a 96 well microtiter plate^[7] and the data are listed in Table 2.
Marks after values point to notes of the source that are not given here. Ends that are not written are not given here.
RECORDED_METRIC: Euglobulin clot lysis time, x ± SD

Sample answers from the record:
{"columns": ["SUBSTANCE", "RESULT"],
 "data": [
  ["3S-(2-Gln-Arg-Pro-Ala-Lys)-1,2,3,4-tetrahydro-β-carboline-3-carboxylic acid (QRPAK; not fully specified (C-terminus)) [compound 24]", "96.88 ± 29.21^1a min"],
  ["3S-1,2,3,4-tetrahydro-β-carboline-3-carboxyl-Ala-Arg-Pro-Ala-OH (ARPA-OH; not fully specified (N-terminus); printed as 3S-1,2,3,4-tetrahydro-β-carboline-3-carboxyl-Ala-Arg-Pro-Ala-OH) [compound 17]", "213.55 ± 30.47 min"],
  ["H-Ala-Arg-Pro-Ala-OH (H-ARPA-OH) [compound 10]", "214.01 ± 28.26 min"],
  ["H-Gln-Arg-Pro-Ala-Lys-OH (H-QRPAK-OH) [compound 4]", "86.28 ± 20.46^a,b min"],
  ["3S-1,2,3,4-tetrahydro-β-carboline-3-carboxyl-Ala-Arg-Pro-OH [compound 18]", "203.66 ± 30.44 min"]
]}

Now let's try a different one.
query: I would be grateful if you could share the reported Euglobulin clot lysis time, x ± SD for 3S-(2-Arg-Arg-Pro-Ala-Lys)-1,2,3,4-tetrahydro-β-carboline-3-carboxylic acid (RRPAK; not fully specified (C-terminus)) [compound 16] .
result: 204.11 ± 32.87 min

====

System: rabbit euglobulin fraction
METHOD: In vitro euglobulin clot lysis time (ECLT)
Assay type: biochemical
SETUP_CONDITIONS: dosage differs per compound (1.3-6.7 μg; UK 5 IU); 96 well microtiter plate; n = 6; NS control 200.01 ± 15.26
Marks after values point to notes of the source that are not given here. Ends that are not written are not given here.
RECORDED_METRIC: Euglobulin clot lysis time, x ± SD

Sample answers from the record:
{"columns": ["SUBSTANCE", "ASSAY_SYSTEM", "Euglobulin clot lysis time, x ± SD"],
 "data": [
  ["H-Ala-Arg-Pro-OH [compound 9]", "rabbit euglobulin fraction", "203.81 ± 29.50 min"],
  ["3S-(2-Arg-Pro-Ala-Lys)-1,2,3,4-tetrahydro-β-carboline-3-carboxylic acid (RPAK; not fully specified (C-terminus)) [compound 29]", "rabbit euglobulin fraction", "104.40 ± 27.51^a min"],
  ["3S-1,2,3,4-tetrahydro-β-carboline-3-carboxyl-Pro-Ala-Lys-OH [compound 20]", "rabbit euglobulin fraction", "209.31 ± 31.57 min"],
  ["H-Arg-Arg-Pro-Ala-Lys-OH (H-RRPAK-OH) [compound 6]", "rabbit euglobulin fraction", "213.31 ± 27.75 min"],
  ["3S-1,2,3,4-tetrahydro-β-carboline-3-carboxyl-Ala-Arg-Pro-Ala-Lys-OH (ARPAK-OH; not fully specified (N-terminus); printed as 3S-1,2,3,4-tetrahydro-β-carboline-3-carboxyl-Ala-Arg-Pro-Ala-Lys-OH) [compound 11]", "rabbit euglobulin fraction", "204.01 ± 32.61 min"]
]}

query: I would be grateful if you could share the reported Euglobulin clot lysis time, x ± SD for 3S-1,2,3,4-tetrahydro-β-carboline-3-carboxyl-Gln-Arg-Pro-Ala-Lys-OH (QRPAK-OH; not fully specified (N-terminus); printed as 3S-1,2,3,4-tetrahydro-β-carboline-3-carboxyl-Gln-Arg-Pro-Ala-Lys-OH) [compound 14] .
result: 212.98 ± 28.42 min

query: I would be grateful if you could share the reported Euglobulin clot lysis time, x ± SD for 3S-1,2,3,4-tetrahydro-β-carboline-3-carboxyl-Arg-Arg-Pro-Ala-Lys-OH (RRPAK-OH; not fully specified (N-terminus); printed as 3S-1,2,3,4-tetrahydro-β-carboline-3-carboxyl-Arg-Arg-Pro-Ala-Lys-OH) [compound 26] .
result: 214.80 ± 32.96 min

query: I would be grateful if you could share the reported Euglobulin clot lysis time, x ± SD for 3S-1,2,3,4-tetrahydro-β-carboline-3-carboxyl-Arg-Pro-Ala-Lys-OH (RPAK-OH; not fully specified (N-terminus); printed as 3S-1,2,3,4-tetrahydro-β-carboline-3-carboxyl-Arg-Pro-Ala-Lys-OH) [compound 19] .
result: 213.56 ± 29.95 min

query: I would be grateful if you could share the reported Euglobulin clot lysis time, x ± SD for H-ARPAK-OH [compound 1, H-Ala-Arg-Pro-Ala-Lys-OH] .
result: 90.12 ± 17.64^a,b min

query: I would be grateful if you could share the reported Euglobulin clot lysis time, x ± SD for 3S-(2-Ala-Arg-Pro-Ala-Lys)-1,2,3,4-tetrahydro-β-carboline-3-carboxylic acid (ARPAK; not fully specified (C-terminus)) [compound 21] .
result: 119.70 ± 23.71^a min

query: I would be grateful if you could share the reported Euglobulin clot lysis time, x ± SD for H-Asn-Arg-Pro-Ala-Lys-OH (H-NRPAK-OH) [compound 5] .
result: 212.88 ± 29.66 min

Cited source for all entries: patent US7138491B2
